Target: T1, human c-Met ECD-Fc-Flis (human)
T1 construct: c-Met ECD fused to Fc with flag- and His-tag at the C-terminus; also called human c-Met extracellular domain (ECD)-Fc-Flis fusion; human c-Met-Flis-Fc ECD
T1 sequence (chain, as listed by the source): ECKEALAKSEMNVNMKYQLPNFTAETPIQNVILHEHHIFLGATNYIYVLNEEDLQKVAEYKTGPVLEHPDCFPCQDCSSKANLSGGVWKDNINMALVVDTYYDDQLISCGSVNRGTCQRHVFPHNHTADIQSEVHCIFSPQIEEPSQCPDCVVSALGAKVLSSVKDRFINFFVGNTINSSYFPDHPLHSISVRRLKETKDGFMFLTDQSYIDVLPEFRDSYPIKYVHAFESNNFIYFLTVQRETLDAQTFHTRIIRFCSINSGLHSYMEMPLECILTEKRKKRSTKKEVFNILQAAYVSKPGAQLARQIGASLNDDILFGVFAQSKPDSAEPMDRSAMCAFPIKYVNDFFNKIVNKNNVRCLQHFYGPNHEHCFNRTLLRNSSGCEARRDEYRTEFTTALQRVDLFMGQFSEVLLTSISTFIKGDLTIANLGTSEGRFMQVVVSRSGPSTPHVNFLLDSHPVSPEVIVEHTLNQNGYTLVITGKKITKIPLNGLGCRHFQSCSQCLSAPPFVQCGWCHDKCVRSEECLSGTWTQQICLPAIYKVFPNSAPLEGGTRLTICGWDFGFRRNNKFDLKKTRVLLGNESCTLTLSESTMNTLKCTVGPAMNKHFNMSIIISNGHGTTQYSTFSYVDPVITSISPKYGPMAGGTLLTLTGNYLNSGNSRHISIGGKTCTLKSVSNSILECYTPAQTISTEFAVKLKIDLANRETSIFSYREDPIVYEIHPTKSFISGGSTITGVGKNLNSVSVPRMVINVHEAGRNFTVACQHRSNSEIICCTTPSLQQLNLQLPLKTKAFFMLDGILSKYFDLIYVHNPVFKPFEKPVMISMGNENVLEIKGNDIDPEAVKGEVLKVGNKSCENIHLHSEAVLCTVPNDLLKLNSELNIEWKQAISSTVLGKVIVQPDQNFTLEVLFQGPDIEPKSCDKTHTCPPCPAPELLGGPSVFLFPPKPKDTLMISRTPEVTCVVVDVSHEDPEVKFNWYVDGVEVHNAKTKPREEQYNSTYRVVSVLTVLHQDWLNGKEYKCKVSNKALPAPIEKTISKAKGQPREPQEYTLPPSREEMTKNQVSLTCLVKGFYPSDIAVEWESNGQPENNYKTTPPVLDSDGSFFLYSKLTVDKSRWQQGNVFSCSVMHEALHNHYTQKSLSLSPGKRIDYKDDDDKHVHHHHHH
Test: HGF-blocking ELISA: HGF signal on coated c-Met ECD-Fc-Flis; Ab 488.28 ng/mL
property: AVG A450 nm (A450 nm)
A number alone suffices; assume A450 nm.

Request: Which AVG A450 nm is listed for C8-H241 (antibody, human IgG2, kappa, V domains shown, Named IgG4 kappa; also called Mab C8-H241) VH: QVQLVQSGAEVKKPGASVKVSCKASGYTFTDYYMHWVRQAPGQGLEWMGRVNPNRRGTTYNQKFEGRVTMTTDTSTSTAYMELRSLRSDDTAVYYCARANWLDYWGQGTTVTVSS VL: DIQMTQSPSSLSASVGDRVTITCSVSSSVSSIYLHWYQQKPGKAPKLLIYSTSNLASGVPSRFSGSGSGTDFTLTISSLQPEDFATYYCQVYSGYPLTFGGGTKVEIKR ?
Response: 0.73

Request: Which AVG A450 nm is listed for C8-co-16 (antibody, human IgG2, kappa, V domains shown, Named IgG4 kappa; also called C8-co-16 IgG4) VH: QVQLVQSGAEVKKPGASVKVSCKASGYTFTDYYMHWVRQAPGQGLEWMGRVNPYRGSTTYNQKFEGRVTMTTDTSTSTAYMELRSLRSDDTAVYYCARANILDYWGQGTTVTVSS VL: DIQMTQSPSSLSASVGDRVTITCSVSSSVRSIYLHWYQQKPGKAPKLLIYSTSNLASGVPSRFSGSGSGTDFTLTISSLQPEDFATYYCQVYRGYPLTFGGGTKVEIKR ?
Response: 0.7

Request: Which AVG A450 nm is listed for D11-C27G3 (antibody, human IgG2, kappa, V domains shown, Human engineered IgG2 kappa c-Met antibody; also called D11-27G3; D11-C27G3 IgG2) VH: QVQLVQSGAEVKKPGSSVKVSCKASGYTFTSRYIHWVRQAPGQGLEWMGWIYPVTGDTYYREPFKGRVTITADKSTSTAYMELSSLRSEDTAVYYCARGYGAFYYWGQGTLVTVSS VL: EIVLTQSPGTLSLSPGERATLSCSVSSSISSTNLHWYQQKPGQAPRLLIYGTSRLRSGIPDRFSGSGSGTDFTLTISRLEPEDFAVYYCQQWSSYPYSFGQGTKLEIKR ?
Response: 0.94

Request: Which AVG A450 nm is listed for D11-S17Y (antibody, human IgG2, kappa, V domains shown, Human engineered IgG2 kappa c-Met antibody; also called D11-S17Y IgG2) VH: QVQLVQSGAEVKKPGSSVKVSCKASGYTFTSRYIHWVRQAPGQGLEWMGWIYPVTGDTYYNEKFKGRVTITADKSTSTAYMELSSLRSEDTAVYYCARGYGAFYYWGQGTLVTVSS VL: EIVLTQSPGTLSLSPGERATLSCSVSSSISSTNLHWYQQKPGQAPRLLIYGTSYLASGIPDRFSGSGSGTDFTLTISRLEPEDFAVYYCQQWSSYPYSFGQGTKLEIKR ?
Response: 1.29
